In this section we review reported LPS % cell toxicity values for a set of compounds.
Tested on: primary rat microglia
Experiment: Cell toxicity (dead cells, size <150 μm2) in LPS assay
Settings: primary microglia HTS, LPS stimulation; decreased size (<150 μm^2) as marker of toxicity

COC(=O)Nc1nc2ccc([S+]([O-])c3ccccc3)cc2[nH]1 (stereo not drawn) [Oxfendazole] :: 1%
c1ccc2c(CC3=NCCN3)cccc2c1 [Naphazoline] :: 1%

--- query ---
What reported LPS % cell toxicity corresponds to Cc1cccc(C)c1NC(=O)c1ccccc1C(=O)O [Ftaxilide, reference compound] on primary rat microglia?
1%

* * *

Each entry below lists one item and its recorded LPS % cell toxicity value.
System: primary rat microglia
Conditions: rat
Answer with a number only, understood to be in %.

N[C@H](Cc1ccccc1)C(=O)O [D-phenylalanine] :: 0
CN1CC(=O)NC1=N [Creatinine] :: 0
CCN[C@H]1C[C@H](C)S(=O)(=O)c2sc(S(N)(=O)=O)cc21 [Dorzolamide] :: 1

Here's the next entry for you.
# input molecule: CN(C)CCCN1c2ccccc2CCc2ccccc21 [Imipramine] ; wanted: its LPS % cell toxicity
1
